Measured values drawn from patent US8420675B2 for this set.

tested_on: human CRTH2 (Homo sapiens, UniProt Q9Y5Y4)
Construct: expressed in transfected cells
Sequence (Q9Y5Y4 whole entry): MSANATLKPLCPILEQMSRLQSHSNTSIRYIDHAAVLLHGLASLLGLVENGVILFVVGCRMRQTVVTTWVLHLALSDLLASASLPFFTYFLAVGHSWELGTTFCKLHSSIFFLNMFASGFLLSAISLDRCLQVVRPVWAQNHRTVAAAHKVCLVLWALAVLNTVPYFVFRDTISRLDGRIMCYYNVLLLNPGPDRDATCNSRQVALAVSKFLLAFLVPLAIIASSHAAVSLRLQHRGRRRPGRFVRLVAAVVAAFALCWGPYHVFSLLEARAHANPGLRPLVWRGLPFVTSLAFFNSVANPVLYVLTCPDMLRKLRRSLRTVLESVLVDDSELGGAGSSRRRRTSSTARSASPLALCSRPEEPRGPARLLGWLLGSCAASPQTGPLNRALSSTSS
assay_info: Human CRTH2 Receptor Binding Assay (whole cell, [3H]ramatroban competition)
condition_description: CHO-K1 cells expressing human CRTH2 and G-alpha16; 20 nM [3H]ramatroban; 1 hour, room temperature
observable: pIC50
Interpret pIC50 as the negative base-10 log of the concentration measured in mol/L.

Query: Which measured pIC50 value corresponds to CN([C@@H]1CCCc2c1cnn2CC(=O)O)S(=O)(=O)c1ccc(Oc2ccc(Cl)c(F)c2)c(Cl)c1 [Example 9-21a] ?
Reply: 7.88

Query: Which measured pIC50 value corresponds to COc1cc(F)ccc1Oc1ccc(S(=O)(=O)N(C)[C@@H]2CCCc3c2cnn3CC(=O)O)cc1Cl [Example 9-17a] ?
Reply: 7.89

Query: Which measured pIC50 value corresponds to O=C(O)Cn1ncc2c1CCCC2NS(=O)(=O)c1cccc(Oc2ccccc2)c1 (stereo not drawn) [Example 1-5a] ?
Reply: 6.79

Query: Which measured pIC50 value corresponds to O=C(O)Cn1ncc2c1CCCC2NS(=O)(=O)c1cnc(Oc2ccc(Cl)cc2)c(Br)c1 (stereo not drawn) [Example 2-1a] ?
Reply: 8.14

Query: Which measured pIC50 value corresponds to CN([C@@H]1CCCc2c1cnn2CC(=O)O)S(=O)(=O)c1cnc(Oc2ccc(Cl)cc2)c(Br)c1 [Example 6-1a] ?
Reply: 8.40

Query: Which measured pIC50 value corresponds to O=C(O)Cn1ncc2c1CCCC2NS(=O)(=O)c1ccc(Oc2ccccc2)cc1 (stereo not drawn) [Example 1-3a] ?
Reply: 6.70

Query: Which measured pIC50 value corresponds to CN([C@@H]1CCCc2c1cnn2CCC(=O)O)S(=O)(=O)c1ccc(-c2cccc(C(F)(F)F)c2)cc1 [Example 11-2a] ?
Reply: 7.09

Query: Which measured pIC50 value corresponds to CN([C@@H]1CCCc2c1cnn2CC(=O)O)S(=O)(=O)c1ccc(-c2cccc(C(F)(F)F)c2)cc1 [Example 11-1a] ?
Reply: 8.14

Query: Which measured pIC50 value corresponds to O=C(O)Cn1ncc2c1CCCC2NS(=O)(=O)c1ccc(-c2ccc(Cl)cc2)cc1 (stereo not drawn) [Example 10-6a] ?
Reply: 6.69

Query: Which measured pIC50 value corresponds to C[S+]([O-])c1cccc(-c2ccc(S(=O)(=O)N[C@@H]3CCCc4c3cnn4CC(=O)O)cc2)c1 (stereo partly drawn) [Example 10-29a] ?
Reply: 7.56

Query: Which measured pIC50 value corresponds to CN([C@@H]1CCCc2c1cnn2CC(=O)O)S(=O)(=O)c1ccc(Oc2ccc(Cl)cc2)cc1Cl [Example 9-4a] ?
Reply: 7.43

Query: Which measured pIC50 value corresponds to CN([C@@H]1CCCc2c1cnn2CC(=O)O)S(=O)(=O)c1cnc(Oc2ccc(C#N)cc2)c(Br)c1 [Example 6-14a] ?
Reply: 8.09

Query: Which measured pIC50 value corresponds to CN([C@@H]1CCCc2c1cnn2CC(=O)O)S(=O)(=O)c1cnc(Oc2cc(Cl)cc(Cl)c2)c(Br)c1 [Example 6-3a] ?
Reply: 7.58

Query: Which measured pIC50 value corresponds to O=C(O)Cn1ncc2c1CCC[C@H]2NS(=O)(=O)c1ccc(Oc2ccccc2Cl)cc1Cl [Example 5-5a] ?
Reply: 8.16

Query: Which measured pIC50 value corresponds to CN([C@@H]1CCCc2c1cnn2CC(=O)O)S(=O)(=O)c1cc(-c2ccc(F)cc2)cc(C(F)(F)F)c1 [Example 12-1a] ?
Reply: 6.89
